# Test system: MS2 coat protein
# test_name: apparent KD of MS2 coat protein; designed switch direction (-1 OFF switch, 1 ON switch): 1; higher = weaker reporter binding
# measurement_setup: input ligand: FMN 200 uM
measurement_name: apparent KD of MS2 coat protein (nM)
Respond with the bare value in nM.

The cases that follow already have their apparent KD of MS2 coat protein on record.
Noted apparent KD of MS2 coat protein for AACAUGUGGUGUUACAUGAGGAUCACCCAUGUGGCAAAAGCUGAGGAUAUCAUUAAACCCAUGAAUGAGAAGGUAGGAUCACAA [AK SSNG3-V2-20] (Eterna round: R96, puzzle: Same State NG 3) , tested on MS2 coat protein: 85.2

GET /values?item= AUUUCUAGCACAGGAUAUCAUGCGAAAAUUGCGUGAGAAGGGUGGACGCUGUCAUUCACGGAAGACAUGAGGAUCACCCAUGUC [SameState NG1 #76] (Eterna round: R96, puzzle: Same State NG 1) &system= MS2 coat protein returns apparent KD of MS2 coat protein: 48

Record for GUUACAUGAGGAUCACCCAUGUAUGUGUGGGAGUAAGUGUCUUAGGAUAUCUGUUAUUUAAUUUGAGAGAAGGAAGAUUGUUGU [JMF's solution 47] (Eterna round: R96, puzzle: Same State NG 3) under target or system MS2 coat protein: apparent KD of MS2 coat protein reported as 134

Now take the following sequence into account.
The measured apparent KD of MS2 coat protein that UAAAUAAUGAUAGGAUAUACAUGAGGAAUCCUCGUAGAAGGAUCAUGACAUGAGGAUCACCCAUGUAACGCUCGAAAGAGCGUA [Mat - Same State NG 1 - JL mod - D44] (Eterna round: R96, puzzle: Same State NG 1) showed for MS2 coat protein is 485

====

# Test system: MS2 coat protein
# test_name: apparent KD of MS2 coat protein; designed switch direction (-1 OFF switch, 1 ON switch): -1; higher = weaker reporter binding
# measurement_setup: input ligand: FMN 200 uM
measurement_name: apparent KD of MS2 coat protein (nM)
Only the number, expressed in nM, is required.

apparent KD of MS2 coat protein value, target or system MS2 coat protein, for GAAAAGUGAGGAUAUUGUUUUUUUUUGAAAACGGGAGAGGGCAAGAAGGCACAUGAGGAUCACCCAUGUAAGGU [Alacar 2] (Eterna round: R97, puzzle: Exclusion 4) : 66.4

More entries:
Record for ACAUUUUAUCCAUGAUAUCACAUGAGGAUCACCCAUGUUAAGGCGAUUUUGAUUUGUAAGCUUUGUGCUCGACUUAU [JR_STOV1_Sub054] (Eterna round: R97, puzzle: Sensor, turn-off variant 1) under target or system MS2 coat protein: apparent KD of MS2 coat protein reported as 35.6

For the sequence AUAAGAAAGGCAGGAUAUUGUGCACCCUAGUGACAAGAAGGGCCAGGGUGUGCGCUCCACAUGAGGAUCACCCAUGUUAGAAAG [Berimate] (Eterna round: R96, puzzle: Exclusion NG 1) , the measured apparent KD of MS2 coat protein on MS2 coat protein was 26.4

====

# Test system: K4 kissing-loop RNA reporter
# test_name: apparent KD of K4 kissing-loop reporter; higher = weaker reporter binding
# measurement_setup: Eterna round: R107; input ligand: tryptophan 2.4 mM
Classification field: 1.0 = apparent KD of K4 kissing-loop reporter at or over 200 nM; 0.0 = apparent KD of K4 kissing-loop reporter under 200 nM.

Use these answered entries as a reference point.
Threshold query (apparent KD of K4 kissing-loop reporter >= 200 nM) on AAACAUAAGUCUGAUACCAGCCUGGGAGAAGUGAUGUUUCUCGGUGCAUAACGCCUAUAAGGCCCUUGGCAGCAGCAUGCGCUUC [theeternabot_sameState_KL_Theo_B_10]
1.0

hey, is apparent KD of K4 kissing-loop reporter for this one >= 200 nM? CCUUCUCUUGGUAGUGAUGUUAUCAAGGACAAGGAUAUCAUCUCAAUGAGAAGGUGUCCUUGAUAACAUGGAGGUCUGAAACAGA [Omei KL FMN A Exc C v8]
1.0

Quick check, apparent KD of K4 kissing-loop reporter >= 200 nM? GGCAGUGAUGUUGCCUAAGCAAUGCAUGCGGAGGAUAUUCGUUUGGGAAGAAGGCCGCAGCGUUCUCUCGAGUGAUGUUCGAGUA [Same State FMN A GF 20]
0.0

Could you please find out whether UGGACCUGACUCGAUAAGAGUCAAUGAGAUACCAGUGACGAAAGUCACCCUUGGCAGCUCAACUGCCAGUGAUGUUGGUGGUCCU [#SwitchBubble 2 #StaticStem] has apparent KD of K4 kissing-loop reporter that meets 200 nM or exceeds it?
1.0

apparent KD of K4 kissing-loop reporter >= 200 nM for UGUGUUGUGUAGUGUUAUGUUUUGAGGGAUACCAGAGUGUUUUUAUUCCCUUGGCAGCUUGAGUGAUGUUUGAUGUUGUUGUUGU [jlljmullin] ?
0.0

Continuing:
Check the entry CCUAUCUCAUACGAUACCAGUCAACGAGUGAUGUUCGAAUAAAUAAAUUUGCCAUAUAAUGACCCUUGGCAGCGUAUGGGAUAGG [Ex Theophylline B K4 14] : does apparent KD of K4 kissing-loop reporter equal or exceed 200 nM?
1.0

Kindly determine if apparent KD of K4 kissing-loop reporter recorded for CAUACGCAUGGAGGAUAUGAGAUUUCUCAUAUUAUUUAAUAUUCUCAGUGAUGUUGAGAAAUAAACUCAGAAGGCCAUGUGUAUG [Ex FMN B 3] is above or exactly 200 nM.
1.0

Check this sequence for apparent KD of K4 kissing-loop reporter at or above 200 nM: AAGCCGGUUGCGGCCGCCACUUUUGCGGACCCGGUGCAGUGAUGUUGCGCAUCGCGGGUUGCUUAAAGGACCGGGCACCUCUAAC [theeternabot_sameState_KL_Trp_B_7]
1.0

Assess whether reported apparent KD of K4 kissing-loop reporter for GCUCGGGAGUGAUGUUCCAAGUGGUGUUAACGAGGACCGGUACGGCCGCCACUCGAUACGGCCGGACCGUAGGAUAAACUGGAGC [Same State - Tryptophan A (Freestyle 12)] sits at 200 nM or higher.
0.0

Could you verify whether the entry UGGAUGUAGUGAUGUUAUAUAGAGAGUGAUACCAGUUUAGAGAAGAACCCUUGGCAGCAUAGAAGAGUAUCAUUGGAGAAGAAUG [ExTheophyl.Ar] shows apparent KD of K4 kissing-loop reporter of no less than 200 nM?
1.0

# bool: apparent KD of K4 kissing-loop reporter of UUAGCUCUAUAGAGCAAGAGGUCAACUGAUACCAGAGGCUAUAGCCUCCCUUGGCAGCGGAACGAGUGAUGUUCGAGACCUCAUU [AK6 SS Theophylline A] >= 200 nM
1.0

====

# Tested on: K4 kissing-loop RNA reporter;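 note: bound reporter read as fluorescence of individual clusters on recovered sequencing chips by microscopy, with normalized cluster intensities fitted with a binding model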
# test_name: apparent KD of K4 kissing-loop reporter; higher = weaker reporter binding
# measurement_setup: Eterna round: R107; input ligand: none
Quick reference for apparent KD of K4 kissing-loop reporter among some sequences
Report only the number, with the unit µM understood.

Recorded apparent KD of K4 kissing-loop reporter, per entry:
Field apparent KD of K4 kissing-loop reporter (K4 kissing-loop RNA reporter), entry AUUUUGGUUUAGAGUGAUGUUCCUUGUAUUCGAGGACCGGUACGGCCGCCACUCGAAUAGAAAAGAAAAGAAAUGUGUGAUGUUU [BDazzled - #5 SS Tryptophan A] : 0.9

Bench note, K4 kissing-loop RNA reporter: entry AGUGAUAUAUGAGGAUAUGGGUUUGUUAAAGAGUUAGUUUUAGUGUUGUUUGGUUAGUGAUGUUAUUUAGAAGGCGUGAGUGAUG [foopmullin] , its apparent KD of K4 kissing-loop reporter = 0.076

Next:
Note to self: apparent KD of K4 kissing-loop reporter of UUUUAAAUGUCUGAUACCAGAGAAAAUUUAUGUAGUGAUGUUAUAUACAAAUUAAAUAAGCUCCCUUGGCAGCAGUAUUAAUUUU [AstrosExc-TheB#9] with K4 kissing-loop RNA reporter was 0.846

Summary: UGACUGGACUGAAGGAGCGGGCGAGACAAAGUCUCGAACUCCUAGUGAUGUUAGGAAAUAACCCAGGUAGGUCGCAGUCUAGUCU [ArgBS 7 #SwitchBubble #StaticStem #DoubleMagnet] , K4 kissing-loop RNA reporter, apparent KD of K4 kissing-loop reporter = 0.128

Let me check: UGCGCUGUGUACUGAAAUGUCCUGCGGGAUACCAGAGUCUUUUUAUUCCCUUGGCAGCUUGAGUGAUGUUUGAUGCCGUUCUUGU [frrgmullin] , system K4 kissing-loop RNA reporter, measured apparent KD of K4 kissing-loop reporter is 0.71

Considering `UGGAGUUGACGAAAAGUCAACUCCUGAGAAGGAGCGGACGAAAGUCCAGGUAGGUCGCUCACUACCAGUGAUGUUGGUACUGAAA` , its apparent KD of K4 kissing-loop reporter with K4 kissing-loop RNA reporter was recorded as 0.203
